assay: Cmax in Sprague-Dawley rat at 2.5 mg/kg, iv by LC/MS method; type: ADME, organism-based; parameters: dose 2.5 mg/kg, route intravenous; conditions: in vivo

SUBSTANCE_SMILES	READOUT_UNIT	Cmax
CCc1ccc2c(c1)c(=O)c(C(=O)Nc1ccc(Oc3ncnc4cc(OC)c(OC)cc34)c(F)c1)c(C)n2C	ng/mL	1170

---

target: Tyrosine-protein kinase receptor UFO (Homo sapiens, UniProt P30530); test: Binding affinity to human AXL

SUBSTANCE_SMILES	READOUT_UNIT	Kd
CCc1ccc2c(c1)c(=O)c(C(=O)Nc1ccc(Oc3ncnc4cc(OC)c(OC)cc34)c(F)c1)c(C)n2C	nM	2.7

---

experiment: AUC (0 to infinity) in Sprague-Dawley rat at 2.5 mg/kg, iv by LC/MS method; assay type: ADME, organism-based; design: dose 2.5 mg/kg, route intravenous, time infinity; details: in vivo

SUBSTANCE_SMILES	AUC(0-inf) [ng·h/mL]
CCc1ccc2c(c1)c(=O)c(C(=O)Nc1ccc(Oc3ncnc4cc(OC)c(OC)cc34)c(F)c1)c(C)n2C	42300

---

Target: Tyrosine-protein kinase receptor UFO (Homo sapiens, UniProt P30530)
Sequence (P30530 whole entry): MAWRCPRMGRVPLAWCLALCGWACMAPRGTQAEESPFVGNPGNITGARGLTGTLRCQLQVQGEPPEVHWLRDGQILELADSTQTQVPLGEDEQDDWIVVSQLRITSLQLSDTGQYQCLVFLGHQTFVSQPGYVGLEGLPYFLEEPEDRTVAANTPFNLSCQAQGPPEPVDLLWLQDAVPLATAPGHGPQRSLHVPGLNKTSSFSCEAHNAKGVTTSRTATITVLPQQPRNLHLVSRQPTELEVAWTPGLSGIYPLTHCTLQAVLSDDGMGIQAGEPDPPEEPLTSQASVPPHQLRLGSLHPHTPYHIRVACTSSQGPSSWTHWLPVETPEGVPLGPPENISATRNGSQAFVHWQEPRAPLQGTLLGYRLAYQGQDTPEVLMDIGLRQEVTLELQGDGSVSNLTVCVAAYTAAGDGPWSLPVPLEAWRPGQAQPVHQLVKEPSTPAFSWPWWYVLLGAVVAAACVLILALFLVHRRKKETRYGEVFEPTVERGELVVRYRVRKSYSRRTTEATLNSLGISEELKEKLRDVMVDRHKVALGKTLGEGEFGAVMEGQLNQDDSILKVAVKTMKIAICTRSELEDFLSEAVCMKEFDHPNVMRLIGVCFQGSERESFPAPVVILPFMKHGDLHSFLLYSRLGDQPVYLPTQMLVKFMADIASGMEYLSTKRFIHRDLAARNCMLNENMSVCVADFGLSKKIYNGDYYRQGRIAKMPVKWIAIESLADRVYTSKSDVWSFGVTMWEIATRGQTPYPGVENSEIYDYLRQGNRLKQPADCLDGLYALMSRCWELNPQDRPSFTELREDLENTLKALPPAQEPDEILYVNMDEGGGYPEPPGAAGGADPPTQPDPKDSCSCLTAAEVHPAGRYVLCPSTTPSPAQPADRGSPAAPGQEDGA
Test: Binding affinity to human AXL by active site dependent completion binding assay
pKd: −log10 of the molar value.
Attribute: pKd
READOUT_KIND: pKd

SUBSTANCE_SMILES	ASSAY_VALUE
CCc1ccc2c(c1)c(=O)c(C(=O)Nc1ccc(Oc3ncnc4cc(OC)c(OC)cc34)c(F)c1)c(C)n2C	8.57
CCc1ccc2c(c1)c(=O)c(C(=O)Nc1ccc(Oc3ncnc4[nH]cc(-c5ccccc5)c34)c(F)c1)c(C)n2C	8.92
